FYI, the data here is from PubChem BioAssay (NCI).

system: M14 melanoma; assay: NCI tumour cell line growth inhibition, 48 h
# label = y if TGI >= 10 µM else n

Asked: Record `CC/C=C\C[C@H](O)C/C=C1/C(=O)C=C[C@@H]1C/C=C\CCCC(N)=O` ; criterion: TGI no lower than 10 µM. Met?
Given back: n

Asked: Record `NS(=O)(=O)c1ccc(/C=C/c2cccc(O)c2)cc1` ; criterion: TGI no lower than 10 µM. Met?
Given back: y

Asked: Record `CC(C)n1c(=O)c2nn3c(=O)n(C(C)C)c(=O)c3nn2c1=O` ; criterion: TGI no lower than 10 µM. Met?
Given back: y

Asked: Record NC(=O)c1ccccc1NC(=O)C(=O)C(c1cnc2ccc([N+](=O)[O-])cc2n1)[N+](=O)[O-] (configuration not stated) ; criterion: TGI no lower than 10 µM. Met?
Given back: y

Asked: Record `CC1=C(C#N)S(=O)(=O)c2c(oc(C)c2C)N1` ; criterion: TGI no lower than 10 µM. Met?
Given back: y

Asked: Record `CN(C)c1ccc(/C=C2\N=C(c3ccccc3)N(c3nc4c(Cl)cc(Cl)cc4s3)C2=O)cc1` ; criterion: TGI no lower than 10 µM. Met?
Given back: y

Asked: Record `CC1(C)N=C(N)N=C(N)N1c1cccc(CSc2ccccc2)c1` ; criterion: TGI no lower than 10 µM. Met?
Given back: y

Asked: Record `CO[P@]1(=O)O[C@@H](c2ccccc2)[C@H](O)[C@]1(O)c1ccccc1` ; criterion: TGI no lower than 10 µM. Met?
Given back: y

Asked: Record CC1(C)CCOC(=O)C(Cl)CC1Cl (configuration not stated) ; criterion: TGI no lower than 10 µM. Met?
Given back: y

Asked: Record `O=C(N/N=C/c1ccc(F)cc1)c1[nH]c2ccc(I)cc2c1-c1ccccc1` ; criterion: TGI no lower than 10 µM. Met?
Given back: n

Asked: Record `C=C(Br)CN(C#N)CC(=C)Br` ; criterion: TGI no lower than 10 µM. Met?
Given back: y

Asked: Record `CCCCNC(=S)Nc1nc(C(=O)NNS(=O)(=O)c2ccccc2)cs1` ; criterion: TGI no lower than 10 µM. Met?
Given back: y

Asked: Record `CC[C@H]1C=CCC[C@@]2(C[C@@H]3CC[C@@H]4[C@H](C(=O)OCCCCCCCCCCCCCCCC(=O)N(CCCN)C[C@@H](O)CCN)[C@]5(CCC[C@@H](C)O5)NC(=[N+]34)N2)O1` ; criterion: TGI no lower than 10 µM. Met?
Given back: n

Asked: Record `COc1cccc(-c2cc(=O)c3cc(C)cnc3[nH]2)c1` ; criterion: TGI no lower than 10 µM. Met?
Given back: y

Asked: Record `O=[N+]([O-])/C=C\c1ccc2c(c1)OCO2` ; criterion: TGI no lower than 10 µM. Met?
Given back: n

Asked: Record `O=C(N=Nc1c(O)[nH]c2ccccc12)c1ccccc1O` ; criterion: TGI no lower than 10 µM. Met?
Given back: y

Asked: Record C=C1CCCCCCCCCCC1S(=O)c1ccccc1 (configuration not stated) ; criterion: TGI no lower than 10 µM. Met?
Given back: y

Asked: Record O=C1CC(c2cccc(Cl)c2)n2cccc21 (configuration not stated) ; criterion: TGI no lower than 10 µM. Met?
Given back: y

Asked: Record C=C(CNCCO)[C@@H]1CC[C@]2(CO)CC[C@]3(C)[C@H](CC[C@@H]4[C@@]5(C)CCC(NCCc6ccc(O)cc6)C(C)(C)[C@@H]5CC[C@]43C)[C@@H]12 (some centres not stated) ; criterion: TGI no lower than 10 µM. Met?
Given back: n

Asked: Record `C/C(=N/O)c1cccc(Nc2nc3ccccc3c3[nH]c4ccccc4c23)c1` ; criterion: TGI no lower than 10 µM. Met?
Given back: n

Asked: Record `CCN(CC)C(=S)SSC1CCCCC1` ; criterion: TGI no lower than 10 µM. Met?
Given back: y

Asked: Record `O=S(=O)(O)c1ccc2cc(N=Nc3cc(S(=O)(=O)O)c4cccnc4c3O)ccc2c1` ; criterion: TGI no lower than 10 µM. Met?
Given back: y
